- Assayed system: T1, peanut allergen Ara h 9 (peanut (Arachis hypogaea))
- T1 construct: ImmunoCAP component F427; also called F427
- Measurement protocol: ImmunoCAP, hybridoma supernatant
- Method: Verification and validation of IgE mAbs peanut allergen specificity. Following the unbiased generation of IgE secreting human hybridomas from peanut allergic subject PBMCs, peanut protein binding and peanut allergen protein specificity was determined. […] Using the available ImmunoCAP components (purified allergen proteins: Ara h 1, F422; Ara h 2, F423; Ara h 3, F424; Ara h 8 F352; Ara h 9 F427), the exact allergen specificity was determined for those which bound Ara h 1, 2, and 3. […]
Please provide measured ImmunoCAP kUA/L for the entries that follow.
Answers are plain numbers, in kUA/L.

{"Binder": "human IgE mAb 26A5 (antibody, V domains shown, human IgE from hybridoma) VH: QVQLVQSGSELRKPGASVKVSCKASGYTFTKYGMNWVRQAPGQGLEWMGWINTNTAKPTYAQDFTGRFVFSLDTSVNTAYLEISGLKAEDTAVYYCATDGSEGSWGQGTLVTVSS VL: DIQMTQSPSTLSASVGDRVTITCRASQSIGTWLAWHQQKPGTAPKVLIYKASNLKSGVPSRFSGSGSGTDFTLTISSLQPDDVATYYCQQYNTYSGTFGQGTRVEIK", "Units label": "kUA/L", "ImmunoCAP kUA/L": 0.14}
{"Binder": "human IgE mAb 38B7 (antibody, V domains shown, human IgE from hybridoma) VH: QVQLVESGGGVVQPGRSLRLSCVGSGFTFRRDAKYWVRQAPGKGLEWVAAISHDGGEEDYAESVKGRFTISRDNSRETVYLEMNSLRPEDTAVYYCATTRSGWYFDYWGQGALVTVSS VL: EIVLTQSPATLSLSPGARATLSCRASQSVDTYLAWYQQRRGQSPRLLIYDASKRATGIPARFSGSGSGTDFTLTISSLEPEDFAVYYCQQRNNWRTWTFGQGTKVEIN", "Units label": "kUA/L", "ImmunoCAP kUA/L": 0.11}

Enquiry: Give its ImmunoCAP kUA/L value. Item: human IgE mAb 3C3 (antibody, V domains shown, human IgE from hybridoma) VH: QLQLQESGPGLVKPSETLSLTCSISGASINSDDYYWGWIRQAPGEALEWIASIDASGTTFYNPSLRSRVTISVDTSTNQISLRLNSVTAADTAIYYCARRKTYYDFLTDYYNWYFDVWGRGTLVTVSS VL: QSALTQPRSVSGSPGQSVTFSCTGINSDIRDYDYVSWYQQHPGEAPKLIIYDVTKRASGVPSRFSGSKSGNTASLTISGLQAEDEADYYCCSYSVTYSFEVFGTGTQVSVL
Return: 0.46
